The reported numbers originate from ChEMBL document CHEMBL1961873.

target: Sphingosine kinase 1 (Homo sapiens); conditions: at 0.1 µM;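 also: mean percent inhibition of SPHK1 activity, measured within the GSK PKIS screening panel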
quantity_kind: inhibition (%)
Dear colleague, please return just the value in %, with no unit written.

Known inhibition results, listed for orientation:
molecule	target	endpoint_unit	inhibition
c1ccc(Cc2nc3ccc(Nc4ncnc5ccccc45)cc3[nH]2)cc1	Sphingosine kinase 1 (Homo sapiens)	%	1.07
OCc1ccc(-c2nc(-c3ccccn3)c(-c3ccc4c(c3)OCO4)[nH]2)cc1	Sphingosine kinase 1 (Homo sapiens)	%	0
CC(C)c1ccc2c(c1)NC(=O)/C2=N/Nc1ccc(S(N)(=O)=O)cc1	Sphingosine kinase 1 (Homo sapiens)	%	0

-- ask Tell me the measured inhibition of N#Cc1cccc(Nc2nccc(-c3cnn4ncccc34)n2)c1 , please.
-- reply -0.07

-- ask Tell me the measured inhibition of Nc1nccc(-c2c(-c3ccc(F)cc3)ncn2CCCN2CCOCC2)n1 , please.
-- reply 2.43

-- ask Tell me the measured inhibition of NS(=O)(=O)c1cccc(Nc2cc(-c3ccc(F)cc3)n[nH]2)c1 , please.
-- reply 0.58

-- ask Tell me the measured inhibition of COC(=O)Nc1nc2cc(Oc3ccc(NC(=O)Nc4cccc(Br)c4)cc3)ccc2[nH]1 , please.
-- reply -1.27

-- ask Tell me the measured inhibition of COc1cc(/C=N/Nc2ncnc3c2cnn3C(C)C)ccc1O , please.
-- reply 0.17

-- ask Tell me the measured inhibition of COc1cccc(-n2ncc3c(N/N=C/c4ccc(S(C)(=O)=O)cc4)ncnc32)c1 , please.
-- reply -1.72

-- ask Tell me the measured inhibition of ON=C1CCc2cc(-c3nc(C4CCNCC4)[nH]c3-c3ccncc3)ccc21 , please.
-- reply -1.16

-- ask Tell me the measured inhibition of c1ccc(Nc2ncc(-c3ccccc3)o2)cc1 , please.
-- reply 2.26

====

Target: MAP kinase-activated protein kinase 5 (Homo sapiens);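 also: mean inhibition of PRAK measured in the GSK PKIS screen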
Sequence (whole entry): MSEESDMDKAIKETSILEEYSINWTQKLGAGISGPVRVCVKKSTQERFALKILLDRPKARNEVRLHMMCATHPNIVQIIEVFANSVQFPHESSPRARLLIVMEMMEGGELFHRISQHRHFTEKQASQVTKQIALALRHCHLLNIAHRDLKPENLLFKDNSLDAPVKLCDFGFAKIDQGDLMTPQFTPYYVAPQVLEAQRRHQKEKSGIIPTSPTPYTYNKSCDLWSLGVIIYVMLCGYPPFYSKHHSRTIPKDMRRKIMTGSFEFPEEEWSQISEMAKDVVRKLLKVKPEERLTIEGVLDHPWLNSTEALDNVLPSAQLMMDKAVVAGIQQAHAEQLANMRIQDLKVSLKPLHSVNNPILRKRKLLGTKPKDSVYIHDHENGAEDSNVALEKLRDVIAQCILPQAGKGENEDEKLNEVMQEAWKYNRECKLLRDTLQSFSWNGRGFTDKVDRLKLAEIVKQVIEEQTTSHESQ
Conditions: at 1 µM
# inhibition per entry
Dear colleague, please return just the value in %, with no unit written.

compound	inhibition / %
OCc1ccc(-c2nc(-c3ccccn3)c(-c3ccc4c(c3)OCO4)[nH]2)cc1	-0.12

-- ask Tell me the measured inhibition of CC(C)c1ccc(Nc2nccc(-c3cnn4ncccc34)n2)cc1 , please.
-- reply 1.09

-- ask Tell me the measured inhibition of CCCN1CCCC(c2ccc(Nc3nc(Nc4cc(F)ccc4C(N)=O)c4cc[nH]c4n3)c(OC)c2)C1 (stereo unspecified) , please.
-- reply 33.2

-- ask Tell me the measured inhibition of COc1cc(/C=N/Nc2ncnc3c2cnn3C(C)C)ccc1O , please.
-- reply 0.02

-- ask Tell me the measured inhibition of N#Cc1c(NC(=O)c2ccccc2F)sc2c1CCCC2 , please.
-- reply -0.7

-- ask Tell me the measured inhibition of c1ccc(Nc2ncc(-c3ccccc3)o2)cc1 , please.
-- reply 1.68
